- study-target: human NAT1 (Homo sapiens, UniProt P18440)
- Construct: purchased BD Gentest (Bedford, Mass.); host or cells: insect cells
- Sequence (P18440 1-290): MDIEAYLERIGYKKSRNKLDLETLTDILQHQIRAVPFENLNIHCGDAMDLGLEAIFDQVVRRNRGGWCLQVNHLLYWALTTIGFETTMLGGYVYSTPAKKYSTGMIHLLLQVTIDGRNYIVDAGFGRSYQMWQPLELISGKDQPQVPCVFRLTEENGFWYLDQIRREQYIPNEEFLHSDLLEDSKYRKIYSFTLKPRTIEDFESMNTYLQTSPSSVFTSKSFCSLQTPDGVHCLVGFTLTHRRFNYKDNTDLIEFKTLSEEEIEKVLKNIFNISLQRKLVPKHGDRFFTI
- procedure-details: N-acetylation by recombinant human NAT1
- Format: in vitro ADME
- condition-info: human recombinant NAT1
result-type: susceptibility to N-acetylation by NAT1, in words

{"compound": "CC(C)Cc1sc(N)nc1-c1ccc(P(=O)(O)O)o1 [Compound 3.6, reference compound]", "measurement": "highly susceptible"}
{"compound": "CCC(C)(C)C(=O)c1sc(N)nc1-c1ccc(P(=O)(O)O)o1 [Compound 1.2]", "measurement": "not metabolized"}
{"compound": "CCC(C)(CC)C(=O)c1sc(N)nc1-c1ccc(P(=O)(O)O)o1 [Compound 1.3]", "measurement": "not metabolized"}
{"compound": "CC(C)(C)Cc1sc(N)nc1-c1ccc(P(=O)(O)O)o1 [Compound 3.1, reference compound]", "measurement": "highly susceptible"}

====

- procedure-details: Variability of N-acetylation in human liver S9 fractions
- Type: in vitro ADME
- condition-info: 100 μM, S9 10 mg/mL protein; donors with high or low N-acetylase activity
result-type: conversion to N-acetylated metabolite in human liver S9 from various donors

{"compound": "CC(C)Cc1sc(N)nc1-c1ccc(P(=O)(O)O)o1 [Compound 3.6, reference compound]", "measurement": "high levels"}
{"compound": "CCOC(=O)[C@H](C)NP(=O)(N[C@@H](C)C(=O)OCC)c1ccc(-c2nc(N)sc2CC(C)C)o1 [Compound 4.6, reference compound]", "measurement": "high levels"}
{"compound": "CC(C)(C)C(=O)c1sc(N)nc1-c1ccc(P(=O)(O)O)o1 [Compound 1.1]", "measurement": "no conversion"}
{"compound": "CCOC(=O)C(C)(C)NP(=O)(NC(C)(C)C(=O)OCC)c1ccc(-c2nc(N)sc2C(=O)C(C)(C)C)o1 [Compound 2.1]", "measurement": "no conversion"}

====

- study-target: human liver FBPase (Homo sapiens, UniProt P09467)
- Sequence (P09467 2-338 limits assumed): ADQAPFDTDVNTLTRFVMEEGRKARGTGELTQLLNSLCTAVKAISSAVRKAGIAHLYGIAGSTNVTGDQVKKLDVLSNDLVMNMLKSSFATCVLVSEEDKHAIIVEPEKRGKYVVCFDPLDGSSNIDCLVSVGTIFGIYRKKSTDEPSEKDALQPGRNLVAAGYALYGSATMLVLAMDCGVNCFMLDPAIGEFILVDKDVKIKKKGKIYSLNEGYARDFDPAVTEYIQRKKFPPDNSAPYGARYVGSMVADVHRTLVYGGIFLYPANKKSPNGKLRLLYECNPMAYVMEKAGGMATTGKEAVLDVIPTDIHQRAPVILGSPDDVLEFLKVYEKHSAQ
- procedure-details: Inhibition of human liver FBPase
- condition-info: purified recombinant human liver FBPase, 0.150 mM fructose 1,6-bisphosphate, 37° C.; read-out: IC50 (hlFBPase)
pIC50: −log10 of the molar value.
The reader will find reported pIC50 values listed item by item below.

{"compound": "CCOC(=O)[C@H](C)NP(=O)(N[C@@H](C)C(=O)OCC)c1ccc(-c2nc(N)sc2CC(C)C)o1 [Compound 4.6, reference compound]", "censor-symbol": "<", "pIC50": 4.00}
{"compound": "Nc1nc(-c2ccc(P(=O)(O)O)o2)c(C(=O)C2CCCCC2)s1 [Compound 1.6]", "censor-symbol": "=", "pIC50": 7.40}
{"compound": "CCC(C)(CC)C(=O)c1sc(N)nc1-c1ccc(P(=O)(O)O)o1 [Compound 1.3]", "censor-symbol": "=", "pIC50": 7.74}
{"compound": "Nc1nc(-c2ccc(P(=O)(O)O)o2)c(C(=O)c2ccc(-c3ccccc3)cc2)s1 [Compound 1.28]", "censor-symbol": "=", "pIC50": 7.24}
{"compound": "CC(C)(C)Cc1sc(N)nc1-c1ccc(P(=O)(O)O)o1 [Compound 3.1, reference compound]", "censor-symbol": "=", "pIC50": 7.92}
{"compound": "Nc1nc(-c2ccc(P(=O)(O)O)o2)c(C(=O)c2ccc(N3CCCC3)c(Cl)c2)s1 [Compound 1.21]", "censor-symbol": "=", "pIC50": 7.27}
{"compound": "Nc1nc(-c2ccc(P(=O)(O)O)o2)c(C(=O)c2cccc(C(F)(F)F)c2)s1 [Compound 1.26]", "censor-symbol": "=", "pIC50": 6.92}
{"compound": "Cc1ccccc1C(=O)c1sc(N)nc1-c1ccc(P(=O)(O)O)o1 [Compound 1.13]", "censor-symbol": "=", "pIC50": 7.32}
{"compound": "Nc1nc(-c2ccc(P(=O)(O)O)o2)c(C(=O)c2ccc(Cl)cc2)s1 [Compound 1.9]", "censor-symbol": "=", "pIC50": 7.07}
{"compound": "Nc1nc(-c2ccc(P(=O)(O)O)o2)c(C(=O)c2ccccc2C(F)(F)F)s1 [Compound 1.27]", "censor-symbol": "=", "pIC50": 6.95}
{"compound": "COc1cccc(C(=O)c2sc(N)nc2-c2ccc(P(=O)(O)O)o2)c1 [Compound 1.18]", "censor-symbol": "=", "pIC50": 7.07}
{"compound": "Nc1nc(-c2ccc(P(=O)(O)O)o2)c(C(=O)c2ccccc2)s1 [Compound 1.5]", "censor-symbol": "=", "pIC50": 7.25}
{"compound": "Cc1cccc(C(=O)c2sc(N)nc2-c2ccc(P(=O)(O)O)o2)c1 [Compound 1.11]", "censor-symbol": "=", "pIC50": 7.44}
{"compound": "COc1ccc(C(=O)c2sc(N)nc2-c2ccc(P(=O)(O)O)o2)cc1 [Compound 1.16]", "censor-symbol": "=", "pIC50": 7.21}
{"compound": "Nc1nc(-c2ccc(P(=O)(O)O)o2)c(C(=O)c2cccc(F)c2)s1 [Compound 1.8]", "censor-symbol": "=", "pIC50": 7.43}
{"compound": "CCOC(=O)C(C)(C)NP(=O)(NC(C)(C)C(=O)OCC)c1ccc(-c2nc(N)sc2C(=O)C(C)(C)C)o1 [Compound 2.1]", "censor-symbol": "<", "pIC50": 4.00}
{"compound": "COc1ccc(C(=O)c2sc(N)nc2-c2ccc(P(=O)(O)O)o2)cc1OC [Compound 1.17]", "censor-symbol": "=", "pIC50": 7.03}
{"compound": "CC(=O)c1sc(N)nc1-c1ccc(P(=O)(O)O)o1 [Compound 1.4]", "censor-symbol": "=", "pIC50": 7.18}
